biological target: Polyunsaturated fatty acid 5-lipoxygenase (Homo sapiens, UniProt P09917); assay: Inhibition of recombinant human 5-lipoxygenase using arachidonic acid as substrate preincubated for 10 mins followed by susbtrate addition and measured after 10 mins by reverse phase HPLC method
Sequence (P09917 whole entry): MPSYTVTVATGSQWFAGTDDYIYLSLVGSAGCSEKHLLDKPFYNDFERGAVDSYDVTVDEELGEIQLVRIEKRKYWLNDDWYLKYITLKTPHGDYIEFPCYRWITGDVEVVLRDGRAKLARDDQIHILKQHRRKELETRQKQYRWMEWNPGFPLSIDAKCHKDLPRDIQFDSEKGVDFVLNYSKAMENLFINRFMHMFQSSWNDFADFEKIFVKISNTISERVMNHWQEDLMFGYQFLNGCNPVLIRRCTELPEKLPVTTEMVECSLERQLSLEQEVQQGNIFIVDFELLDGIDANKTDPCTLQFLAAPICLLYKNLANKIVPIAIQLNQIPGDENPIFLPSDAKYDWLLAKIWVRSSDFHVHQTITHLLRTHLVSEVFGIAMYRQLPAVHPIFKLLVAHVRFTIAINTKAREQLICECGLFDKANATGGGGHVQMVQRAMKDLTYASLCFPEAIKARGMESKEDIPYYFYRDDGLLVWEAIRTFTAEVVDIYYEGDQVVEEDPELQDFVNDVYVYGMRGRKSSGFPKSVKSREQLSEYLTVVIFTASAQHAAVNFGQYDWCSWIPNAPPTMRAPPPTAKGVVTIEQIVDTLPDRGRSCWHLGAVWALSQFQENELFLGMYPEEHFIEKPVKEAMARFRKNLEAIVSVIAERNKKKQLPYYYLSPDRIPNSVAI
IC50 values, listed per item

| input-smiles | IC50 |
| --- | --- |
| O=C(NCCCC[C@H]1CN=C(c2ccccc2O)N1)c1ccccc1O | > 10 µM |
| NC[C@H](CCCCNC(=O)c1ccccc1O)NC(=O)c1ccccc1O | > 10 µM |
| NC[C@H](CCCCNC(=O)c1c(O)cccc1F)NC(=O)c1cccc(O)c1O | > 10 µM |
